This collection of values is drawn from the Biogen ADME set (Fang et al. 2023).

setupConditions: pH 6.8
Overview of recorded aqueous solubility for various molecules
Answer format: numeric, µg/mL implied, no suffix.

Known aqueous solubility results, listed for orientation:
entrySmiles: Cc1ccc(C(=O)Nc2ccccc2C(C)(C)C)cn1
aqueous solubility (µg/mL): 32

entrySmiles: OC[C@H](Nc1cncc(-c2ccc3[nH]ncc3n2)c1)c1ccccc1
aqueous solubility (µg/mL): 32.7

entrySmiles: O=C(c1noc2c1CCCC2)N1CCN(c2ncccn2)CC1
aqueous solubility (µg/mL): 53.3

Task: Look up aqueous solubility: Cc1nc(N2CCN(C)CC2)nc(C)c1NC(=O)C1CCCCC1
Result: 60

Task: Also check NC(=O)C1(CCCc2ccccn2)CCNCC1
Result: 38.7

Task: Also check CCc1nnnn1Cc1noc2c1CCCC2
Result: 23.2

Task: Also check Cc1c(C(=O)NCc2cnc(N(C)C)n2C)sc2ccccc12
Result: 51

###

setupConditions: pH 6.8
Overview of recorded aqueous solubility for various compounds
Answer format: numeric, µg/mL implied, no suffix.

Known aqueous solubility results, listed for orientation:
entrySmiles: Cn1cc(-c2cn3nccc3c(-c3cnn([C@]4(CC#N)C[C@@H](C#N)C4)c3)n2)cn1
aqueous solubility (µg/mL): 2.2

entrySmiles: Cc1ccc(C(=O)Nc2ccccc2C#N)cc1
aqueous solubility (µg/mL): 10.4

entrySmiles: c1ccc(Cc2ccccc2-c2nnc(-c3cccnc3)o2)cc1
aqueous solubility (µg/mL): 0.22

entrySmiles: Clc1cccc(Nc2ncnc3[nH]ncc23)c1Cl
aqueous solubility (µg/mL): 3.23

entrySmiles: COc1ccccc1NC(=O)CN1CCCN(c2nc(C)cs2)CC1
aqueous solubility (µg/mL): 55.5

entrySmiles: Cc1cccc(O[C@H]2CN(Cc3ccc(OCCCO)cc3)C[C@@H]2O)c1
aqueous solubility (µg/mL): 62

Moving on to the next compound.
Task: Look up aqueous solubility: COC(=O)Nc1nc2ccccc2[nH]1
Result: 8.05

###

Lab note: anything with intrinsic clearance, human liver microsomes at or over 20 mL/min/kg counts as true (1); the rest go in false (0).

As a guide, the following entries are already answered.
entrySmiles: O=C(NN1CCOCC1)c1ccc(Cl)c(Cl)c1
assignedCategory: false (0)
--
entrySmiles: COc1nc2sc(C(=O)NC3CC3)c(N)c2c(C)c1Cl
assignedCategory: false (0)
--
entrySmiles: NC(=O)CC1CCN(c2ncccn2)CC1
assignedCategory: false (0)

Task: Answer whether intrinsic clearance, human liver microsomes of COc1ccc(S(=O)(=O)N2CCC[C@H](C(=O)Nc3cccc4ncccc34)C2)cc1 is greater than or equal to 20 mL/min/kg.
Result: true (1)

Task: Also check CC(C)CCn1ccc(NC2CCN(C(C)C)CC2)n1
Result: false (0)

Task: Also check N#CCN1CCCN(Cc2ccc(C#N)cc2)CC1
Result: true (1)

Task: Also check COc1ccc(OC)c(S(=O)(=O)Nc2cccc(CCc3ccccn3)c2)c1
Result: true (1)

Task: Also check Cc1ccncc1NC(=O)Cc1ccc(F)cc1
Result: false (0)

Task: Also check N#Cc1ccccc1NC(=O)CCc1ccccc1
Result: false (0)

###

Label key: yes (1) means intrinsic clearance, human liver microsomes under 90 mL/min/kg; no (0) means intrinsic clearance, human liver microsomes of 90 mL/min/kg or more.

compound: NC(=O)Cn1ccc(-c2ccccc2)n1
assignedCategory: yes (1)

compound: O=C1CN(c2ccc(Nc3nccc(C(F)(F)F)n3)cn2)CCN1
assignedCategory: yes (1)

compound: CC(C)CCN1CCC(CNS(C)(=O)=O)CC1
assignedCategory: yes (1)

compound: O=C(c1ccc(F)cc1)N1Cc2nc[nH]c2C[C@H]1c1nc(-c2ccc(Cl)cc2)no1
assignedCategory: yes (1)

compound: Cc1cc(C(=O)N(C)Cc2ccc(Br)cc2)no1
assignedCategory: no (0)

Task: Is intrinsic clearance, human liver microsomes strictly under 90 mL/min/kg for the entry Cc1cccc(NC(=O)CN2CCCN(c3ccc(C(F)(F)F)cn3)CC2)c1 ?
Result: no (0)

###

Overview of recorded MDR1-MDCK efflux ratio for various compounds
A bare number is all that is needed in reply.

Known MDR1-MDCK efflux ratio results, listed for orientation:
compound: CNC(=O)c1ccccc1Nc1nc(Nc2ccc(N3CCOCC3)cc2OC)ncc1Cl
MDR1-MDCK efflux ratio: 3.06
//
compound: COc1ccc(CCC(=O)N2CCN(C(=O)c3cc4n(n3)CCCC4)CC2)cc1
MDR1-MDCK efflux ratio: 5.94
//
compound: Cc1n[nH]c(C2CCN(C(=O)NC3CCN(c4ccc(F)cc4)CC3)CC2)n1
MDR1-MDCK efflux ratio: 22.9
//
compound: CN(C)CCNc1c2c(c(C#N)c3nc4ccccc4n13)CCCC2
MDR1-MDCK efflux ratio: 2.57

Task: Look up MDR1-MDCK efflux ratio: COc1cc2c(cc1OC)CN(C(=O)C1CCCN(S(=O)(=O)c3cccs3)C1)CC2 (stereo unspecified)
Result: 9.7

Task: Also check c1ccc(-c2noc(NCC3CCC3)n2)cc1
Result: 0.605

Task: Also check Cc1cc(-c2nnc3ccc4ccccc4n23)n(C)n1
Result: 1.26

Task: Also check CC(=O)Nc1nc(-c2c(C)cc(C)cc2C)cs1
Result: 0.559

Task: Also check O=C(c1ccc(NS(=O)(=O)c2cccc3cnccc23)cc1)N1CCCC1
Result: 79.1

Task: Also check c1ccc(COc2ccc(CNCC3CCNCC3)cc2)cc1
Result: 4.9

Task: Also check CSc1nnc(CCCNc2cc(C)ccn2)n1C1CCCC1
Result: 18.2

###

Overview of recorded intrinsic clearance, human liver microsomes for various molecules

Known intrinsic clearance, human liver microsomes results, listed for orientation:
entrySmiles: CC(C)c1ccc2occ(CC(=O)O)c2c1
result: ≤ 4.74 mL/min/kg

entrySmiles: O=C(c1cc(F)ccc1O)N1CCN(C2CCOCC2)CC1
result: ≤ 4.74 mL/min/kg

entrySmiles: CCNC(=O)c1cc(N2CCC(N3CCCC3=O)CC2)ccn1
result: ≤ 4.74 mL/min/kg

entrySmiles: Nc1ccc2c(c1)ncn2CCc1ccccc1
result: ≤ 4.74 mL/min/kg

Moving on to the next molecule.
Task: Look up intrinsic clearance, human liver microsomes: Cc1c[nH]c(=O)n1-c1ccc(C(=O)Nc2ccc3ccccc3n2)cc1
Result: 8.88 mL/min/kg

###

Overview of recorded MDR1-MDCK efflux ratio for various compounds
A bare number is all that is needed in reply.

entrySmiles: Nc1nc2c3ccccc3oc2c2ccccc12
recordedNumber: 0.236

entrySmiles: O=C(Nc1nc(-c2ccccn2)cs1)c1ccc(F)cc1Cl
recordedNumber: 0.149

entrySmiles: CN(C)c1cnn(CCC(C#N)(c2ccccc2)c2ccccc2)c(=O)c1
recordedNumber: 2.74

entrySmiles: CC(C)n1cc(-c2ccc3c(c2)N(C)CC3)c2c(NS(=O)(=O)c3ccn(C)n3)ccnc21
recordedNumber: 2.48

entrySmiles: CCOc1cc(CN2CCc3c(N)nc(N4CCCC4)nc3C2)ccc1OC
recordedNumber: 16.6

entrySmiles: CCCN(CCC1=CCCCC1)C(=O)c1cc(C(F)F)n[nH]1
recordedNumber: 0.395

Task: Look up MDR1-MDCK efflux ratio: CCc1oc2c(-n3cnnc3)cccc2c1C
Result: 0.587

Task: Also check O=C(CC[C@@H]1CCCN2CCCC[C@H]12)NCc1cnc2c(c1)CCC2
Result: 26.7

Task: Also check Cn1cnnc1NC(=O)c1cnn2c1CCCC2
Result: 3.95

Task: Also check Cc1cc(Br)cn(Cc2ccc(C#N)cc2F)c1=O
Result: 0.644

###

setupConditions: pH 6.8
Overview of recorded aqueous solubility for various compounds
Answer format: numeric, µg/mL implied, no suffix.

entrySmiles: CNC(=O)c1ccc(-c2nnc(-c3cccc(C)c3)o2)cc1
aqueous solubility / µg/mL: 0.21

Task: Look up aqueous solubility: CCN(CC)CCCNc1ncc(-c2cc(C)no2)c(-c2ccco2)n1
Result: 69.8

Task: Also check CON(C)C(=O)c1cccc2c(C)c(C)[nH]c12
Result: 31.5

###

Overview of recorded MDR1-MDCK efflux ratio for various compounds
A bare number is all that is needed in reply.

Known MDR1-MDCK efflux ratio results, listed for orientation:
entrySmiles: O=C(CCCOc1ccccc1)N1CCCC1
recordedNumber: 0.631
--
entrySmiles: CCN(CC)CC(=O)Nc1ccc(Oc2ccc(C)nn2)cc1
recordedNumber: 1.62
--
entrySmiles: N#Cc1ccc(Cn2cncn2)c(F)c1
recordedNumber: 0.697
--
entrySmiles: COc1cccc(CN(C)c2cc(N3CCCC3)ncn2)n1
recordedNumber: 0.683
--
entrySmiles: CN(C)C(=O)COC(=O)Cc1ccc(OC(=O)c2ccc(NC(=N)N)cc2)cc1
recordedNumber: 0.707

Task: Look up MDR1-MDCK efflux ratio: O=C(NC1=NS(=O)(=O)c2ccccc21)c1cc(-c2ccc(F)cc2)no1
Result: 2.56

Task: Also check C#C[C@@](C)(CC)NC(=O)c1cc(F)cnc1NC1CC(F)(F)C1
Result: 0.802

Task: Also check Cc1nc(N(C)C)nc(C)c1NC(=O)C1CCCCC1
Result: 0.656

Task: Also check Cc1ccc(CNC(=O)c2cccs2)cn1
Result: 0.842

Task: Also check O=C(c1ccncc1)N1CCC(c2cnccn2)CC1
Result: 2.71

Task: Also check CCCn1cc(NC(=O)Nc2ccc(N3CCSCC3)cc2)cn1
Result: 7.18
